test: chemical genetic growth profiling, strain panel (AID 1159580);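 also: tested at 20 µM; growth read once vehicle control cultures reached saturation at 30 °C; 1 = growth at the plate median or of vehicle wells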; settings: S. cerevisiae deletion strains, growth OD, locus YMR263W, strain SAP30, stronger effect = lower value
In all, about 5,500 compounds went through this assay and about 2,000 (36%) were called active. Another 18% or so got no clear call; they are omitted. The list shows a part of the results.
Quantity: normalized growth

1. C#C[C@]1(O)CC[C@H]2[C@@H]3CCC4=Cc5oncc5CC4(C)[C@H]3CCC21C (stereo not given in full) :: 1
2. C#C[C@]1(O)CCC2C3CCC4=Cc5oncc5C[C@]4(C)C3CC[C@@]21C (stereo not given in full) :: 0.926
3. COC(=O)c1cc([N+](=O)[O-])ccc1N1CCOCC1 :: 1
4. NC(=O)N1c2ccccc2C=Cc2ccccc21 :: 1.01
5. C[C@]12CCC(=O)C=C1CCC1C2C(=O)C[C@@]2(C)C1CC[C@]2(O)C(=O)CO (stereo not given in full) :: 1

====

experiment: chemical genetic growth profiling, strain panel (AID 1159580); settings: S. cerevisiae deletion strains, growth OD, locus YBR009C, strain hhf1
Among all 5,500 compounds or so, about 2,000 (36%) were called active. Not shown: some 18% with an inconclusive outcome. No stated cut-off is given here; in the data, active means normalized growth mostly below about 0.91 (no sharp cut-off); inconclusive means no clear call, values can overlap the other calls; inactive means mostly above about 0.92. This is one part of the list.
Classes used: t for active, f for inactive

1. CCCc1nc2c(C)cc(-c3nc4ccccc4n3C)cc2n1Cc1ccc(-c2ccccc2C(=O)O)cc1 :: f
2. O=c1c(O)c(-c2ccc(O)c(O)c2)oc2cc(O)ccc12 :: f
3. NC(N)=NC(N)=Nc1ccccc1 :: f
4. COc1cnc(NS(=O)(=O)c2ccc(N)cc2)nc1 :: f
5. C=C(C)[C@@H]1CC[C@]2(CO)CC[C@]3(C)[C@H](CCC4[C@@]5(C)CC[C@H](O)C(C)(C)C5CC[C@]43C)C12 (some centres not stated) :: f
6. CC1=CC2C(C(C)C)CCC(C)(O)C2CC1 (configuration not stated) :: f
7. O=C(OC[C@H]1O[C@H](OC(=O)c2cc(O)c(O)c(OC(=O)c3cc(O)c(O)c(O)c3)c2)[C@H](OC(=O)c2cc(O)c(O)c(OC(=O)c3cc(O)c(O)c(O)c3)c2)[C@@H](OC(=O)c2cc(O)c(O)c(OC(=O)c3cc(O)c(O)c(O)c3)c2)[C@@H]1OC(=O)c1cc(O)c(O)c(OC(=O)c2cc(O)c(O)c(O)c2)c1)c1cc(O)c(O)c(OC(=O)c2cc(O)c(O)c(O)c2)c1 :: t

====

Each entry below lists one item and its recorded normalized growth value.
experiment: chemical genetic growth profiling, strain panel (AID 1159580); conditions: S. cerevisiae deletion strains, growth OD, locus YOR001W, strain rrp6, stronger effect = lower value
Out of some 5,500 compounds screened, about 2,000 (36%) were called active. Inconclusive results (about 18%) are left out. This is one part of the list.
Quantity: normalized growth

1) COc1cnc(NS(=O)(=O)c2ccc(N)cc2)nc1 :: 0.99
2) COc1cccc(OC)c1C(=O)N[C@@H]1C(=O)N2[C@@H]1SC(C)(C)[C@@H]2C(=O)O :: 0.99
3) COc1ccc(-c2oc3ccccc3c(=O)c2O)cc1OC :: 0.678
4) CCC1(CC)C(=O)C=CNC1=O :: 0.971
5) C=C(C)[C@H]1Cc2c(ccc3c2O[C@@H]2COc4cc(OC)c(OC)cc4[C@@H]2C3=O)O1 :: 0.967
6) COc1cc2c(cc1OC)[C@@H]1C(=O)c3ccc4c(c3O[C@@H]1CO2)CC(C(C)C)O4 (stereo not given in full) :: 0.966
7) O=c1c(O)c(-c2ccc(O)c(O)c2)oc2cc(O)ccc12 :: 0.935
8) COc1cc(-c2coc3cc(O[C@@H]4O[C@H](CO)[C@@H](O)[C@H](O)[C@H]4O)c(OC)c(O)c3c2=O)cc(O)c1OC :: 0.948
9) CNCC[C@@H](Oc1ccccc1)c1ccccc1 :: 0.972
10) COc1cc(-c2oc3cc(O)ccc3c(=O)c2O)ccc1O :: 0.917

====

Each entry below lists one item and its recorded normalized growth value.
experiment: chemical genetic growth profiling, strain panel (AID 1159580);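 also: tested at 20 µM; growth read once vehicle control cultures reached saturation at 30 °C; 1 = growth at the plate median or of vehicle wells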; conditions: S. cerevisiae deletion strains, growth OD, locus YBR229C, strain ROT2, stronger effect = lower value
The campaign covered roughly 5,500 compounds. About 2,000 (36%) were called active. Not shown: some 18% with an inconclusive outcome. The list shows a part of the results.
Quantity: normalized growth

1) COc1c2occc2c(OC)c2c(=O)cc(C)oc12 :: 1.01
2) O=C(CCBr)N1CCN(C(=O)CCBr)CC1 :: 1
3) O=C(OC[C@H]1O[C@H](OC(=O)c2cc(O)c(O)c(OC(=O)c3cc(O)c(O)c(O)c3)c2)[C@H](OC(=O)c2cc(O)c(O)c(OC(=O)c3cc(O)c(O)c(O)c3)c2)[C@@H](OC(=O)c2cc(O)c(O)c(OC(=O)c3cc(O)c(O)c(O)c3)c2)[C@@H]1OC(=O)c1cc(O)c(O)c(OC(=O)c2cc(O)c(O)c(O)c2)c1)c1cc(O)c(O)c(OC(=O)c2cc(O)c(O)c(O)c2)c1 :: 0.0601
4) O=C(O)[C@H](O)[C@@](O)(Cc1ccc(O)cc1)C(=O)O :: 1.02
5) CCN(CC)CCNC(=O)c1cc(Cl)c(N)cc1OC :: 1.01
6) O=C(Nc1cccnc1)c1cccc(Cl)c1Cl :: 0.993
7) CN1CCN(CC(=O)N2c3ccccc3C(=O)Nc3cccnc32)CC1 :: 1.01
8) CC(=O)[C@@]1(O)CCC2C3CCC4=CC(=O)CC[C@]4(C)C3CC[C@@]21C (stereo partly drawn) :: 0.993

====

assay: chemical genetic growth profiling, strain panel (AID 1159580);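 also: tested at 20 µM; growth read once vehicle control cultures reached saturation at 30 °C; 1 = growth at the plate median or of vehicle wells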; details: S. cerevisiae deletion strains, growth OD, locus YNL153C, strain GIM3
Hit rate of the full screen: of about 5,500 compounds, about 2,000 (36%) were called active. Another 18% or so got no clear call; they are omitted. Rule as the data show it: active = normalized growth mostly below about 0.91 (no sharp cut-off); inconclusive = no clear call, values can overlap the other calls; inactive = mostly above about 0.92. This is one part of the list.
Classes used: 1 for active, -1 for inactive

1) CC[C@@H](CO)NC(=O)[C@@H]1C=C2c3cccc4[nH]cc(c34)C[C@H]2N(C)C1 :: -1
2) COc1ccc(C(=O)c2ccccc2)c(O)c1O :: -1
3) CCOc1ccc(C(=O)c2ccc(O)c(O)c2O)cc1 :: 1
4) COc1ccc(C(=O)c2ccc(O)cc2)c(O)c1O :: -1
5) CN(C(=O)Nc1ccccc1)n1cnc2ccccc2c1=O :: -1
6) CCOc1ccc(NC(C)=O)cc1 :: -1

====

test: chemical genetic growth profiling, strain panel (AID 1159580);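 also: tested at 20 µM; growth read once vehicle control cultures reached saturation at 30 °C; 1 = growth at the plate median or of vehicle wells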; conditions: S. cerevisiae deletion strains, growth OD, locus YDR159W, strain sac3
Among all 5,500 compounds or so, about 2,000 (36%) were called active. Inconclusive results (about 18%) are left out. Rule as the data show it: active = normalized growth mostly below about 0.91 (no sharp cut-off); inconclusive = no clear call, values can overlap the other calls; inactive = mostly above about 0.92. Some of the results follow. Where a SMILES comes first, the peptide text is derived from it. [ ]: non-standard residue; d: D form. Orn = NCCC[CH](N)C(=O)O
Classes used: Y = active, N = inactive

1. Cc1cc(=O)n(-c2ccccc2)n1C :: N
2. O=C1c2ccccc2C(=O)C1c1ccccc1 :: N
3. COC(=O)C[C@H]1C(C)(C)[C@@H](O)[C@@H]2CC3=C4C=C(OC)O[C@@H](c5ccoc5)[C@]4(C)CCC3[C@@]1(C)C2=O (stereo partly drawn) :: N
4. CC(C)CC1NC(=O)C(CCCN)NC(=O)C(C(C)C)NC(=O)C2CCCN2C(=O)C(Cc2ccccc2)NC(=O)C(CC(C)C)NC(=O)C(CCCN)NC(=O)C(C(C)C)NC(=O)C2CCCN2C(=O)C(Cc2ccccc2)NC1=O (stereo not drawn) (cyclo(FPV[Orn]LFPV[Orn]L); configuration not given here) :: N
5. COc1cc2c(cc1O)CCNC2C (stereo not drawn) :: N
6. COc1cc2cc3c4cc(OC)c(OC)cc4cc[n+]3c(C)c2cc1OC :: N
7. CN1C(=O)CCS(=O)(=O)C1c1ccc(Cl)cc1 (stereo not drawn) :: N
8. NC[C@H]1O[C@H](O[C@H]2C(O[C@@H]3O[C@H](CO)[C@@H](O)[C@H]3O)[C@@H](O)[C@H](N)C[C@@H]2N)[C@H](N)[C@@H](O)[C@@H]1O (stereo partly drawn) :: N
9. CN(C)CCc1c[nH]c2ccc(C[C@H]3COC(=O)N3)cc12 :: N
10. CC(=O)OCC(=O)[C@@]12OC3(CCCC3)O[C@@H]1CC1C3CCC4=CC(=O)C=C[C@]4(C)[C@@]3(F)[C@@H](O)C[C@@]12C (stereo partly drawn) :: N
11. CN(C)CCc1c[nH]c2ccc(CS(=O)(=O)N3CCCC3)cc12 :: Y
12. CO[C@@]1(NC(=O)Cc2cccs2)C(=O)N2C(C(=O)O)=C(COC(N)=O)CS[C@@H]21 :: N
13. CC[C@@H](CO)NC(=O)[C@@H]1C=C2c3cccc4[nH]cc(c34)C[C@H]2N(C)C1 :: N
14. CC(=O)OCC(=O)[C@@]1(O)CCC2C3CCC4=CC(=O)CC[C@]4(C)C3[C@@H](O)C[C@@]21C (stereo partly drawn) :: N
15. C[C@]12CCC3C(CC[C@H]4C[C@H](OS(=O)(=O)O)CC[C@]34C)C1CCC2=O (stereo partly drawn) :: N
16. CNS(=O)(=O)Cc1ccc2[nH]cc(CCN(C)C)c2c1 :: N
17. CC(=O)O[C@@H]1CC[C@]2(C)C3CC[C@]4(C)C(=O)CCC4C3CC[C@H]2C1 (stereo partly drawn) :: N
18. CC(=O)OCC1=C(C(=O)O)N2C(=O)[C@@H](NC(=O)CCCC(N)C(=O)O)C2SC1 (stereo partly drawn) :: N

Values from PubChem BioAssay AID1159580
